Numbers sourced from patent US7138361B2.

# Tested on: Surinam grass (Brachiaria decumbens)
# assay notes: Test B postemergence
# Assay type: in vivo
# experimental setup: Rate 500 g/ha, scale 0 to 100, 0 is no effect, 100 is complete control, 13 to 15 days
Listing: Plant response rating, Surinam grass of selected molecules
measured metric: Plant response rating, Surinam grass

[[record]]
molecule = "CC(C)(C)c1ccn(C2CCN(c3cc(Cl)cc(Cl)c3)C2=O)n1 (stereo not drawn) [Compound 55]"
measured_metric = "Plant response rating, Surinam grass"
experimental_result = 0

[[record]]
molecule = "CCC(C)c1ccn(C2OCN(c3cccc(OC(F)F)c3)C2=O)n1 (stereo not drawn) [Compound 134]"
measured_metric = "Plant response rating, Surinam grass"
experimental_result = 60

[[record]]
molecule = "Cc1ccc(N2CCC(n3ccc(C(C)(C)C)n3)C2=O)cc1Cl (stereo not drawn) [Compound 41]"
measured_metric = "Plant response rating, Surinam grass"
experimental_result = 0

[[record]]
molecule = "CC1CCc2cn(C3CCN(c4cccc(C(F)(F)F)c4)C3=O)nc21 (stereo not drawn) [Compound 11]"
measured_metric = "Plant response rating, Surinam grass"
experimental_result = 0

[[record]]
molecule = "CC1(c2ccn(C3OCN(c4cccc(OC(F)(F)F)c4)C3=O)n2)CC1 (stereo not drawn) [Compound 69]"
measured_metric = "Plant response rating, Surinam grass"
experimental_result = 0

[[record]]
molecule = "CCCCC(CCCC)c1ccn(C2SCN(c3cccc(OC(F)(F)F)c3)C2=O)n1 (stereo not drawn) [Compound 115]"
measured_metric = "Plant response rating, Surinam grass"
experimental_result = 100

[[record]]
molecule = "CC1(c2ccn(C3SCN(c4cccc(OC(F)(F)F)c4)C3=O)n2)CC1 (stereo not drawn) [Compound 63]"
measured_metric = "Plant response rating, Surinam grass"
experimental_result = 0

[[record]]
molecule = "CCC(CC)c1ccn(C2SCN(c3cccc(C(F)(F)F)c3)C2=O)n1 (stereo not drawn) [Compound 21]"
measured_metric = "Plant response rating, Surinam grass"
experimental_result = 0

[[record]]
molecule = "O=C1C(n2ccc(C3CCC3)n2)OCN1c1cccc(C(F)(F)F)c1 (stereo not drawn) [Compound 39]"
measured_metric = "Plant response rating, Surinam grass"
experimental_result = 0

